system: SEM cells; experiment: cell viability relative to DMSO control; higher = less cytotoxic; settings: RPMI 5 mM glucose + 10% FBS; 48 h; 15.4 µM
experimental readout: cell viability (%)

compound	system	experimental readout	numeric readout
OCCCNc1cc(-c2ccnc(Nc3cccc(Cl)c3)n2)ccn1	SEM cells	cell viability	5.72
COc1cc2ncnc(Nc3cccc(Br)c3)c2cc1OC	SEM cells	cell viability	110
COc1ccc2c(c1OC)CN1CCc3cc4c(cc3C1C2)OCO4 (centres undefined)	SEM cells	cell viability	7.3
C[C@@H]1C[C@H]2[C@@H]3CC\C4=C\C(=O)\C=C/[C@]4(C)[C@@]3(Cl)[C@@H](O)C[C@]2(C)[C@@]1(OC(=O)C5=CC=CO5)C(=O)CCl	SEM cells	cell viability	37.3
Clc1ccccc1CN1CCc2sccc2C1	SEM cells	cell viability	140
CCNC(=O)[C@H]1O[C@@H](n2cnc3c(N)nc(NCCc4ccc(CCC(=O)O)cc4)nc32)[C@H](O)[C@@H]1O	SEM cells	cell viability	89.6
COc1cc(N[S+](=O)([O-])c2ccc(N)cc2)nc(OC)n1	SEM cells	cell viability	111
O=c1[nH]cnc2c1ncn2[C@H]1CC[C@@H](CO)O1	SEM cells	cell viability	60.8
CCN(CC)CCN1C(=O)\C(=N/C2=CC=CC=C12)CC3=CC=C(OC)C=C3	SEM cells	cell viability	92
CN(C)CCCNC(=O)c1ccc(-c2cc(O)c3ncccc3c2)cc1	SEM cells	cell viability	78.2
CNCC(O)C(O)C(O)C(O)CO.O=C(O)c1ccc(-c2cc3cccnc3c(-c3ccc4nonc4c3)n2)cc1	SEM cells	cell viability	108
CC(C)(C)c1cc(C(=O)O)c(NC(=O)Nc2ccc3[nH]ncc3c2)s1	SEM cells	cell viability	93.1
O=C(CCc1ccc(O)cc1)c1c(O)cc(O)cc1O[C@@H]1O[C@H](CO)[C@@H](O)[C@H](O)[C@H]1O	SEM cells	cell viability	92.2
Cc1cc(O)c2c(c1)C(=O)c1cc(O)cc(O)c1C2=O	SEM cells	cell viability	120
OC(COC1=C2C(=O)\C=C(/OC2=CC=C1)C([O-])=O)COC3=C4C(=O)\C=C(/OC4=CC=C3)C([O-])=O	SEM cells	cell viability	65.9
COC1(C[S+]([O-])c2ccccc2)CCN(CCc2c[nH]c3ccc(F)cc23)CC1 (centres undefined)	SEM cells	cell viability	110
CC(C)NCC(O)c1ccc(NS(C)(=O)=O)cc1 (centres undefined)	SEM cells	cell viability	97.2
CC(C)C[C@H](NC(=O)[C@H](Cc1ccccc1)NC(=O)c1cnccn1)B(O)O	SEM cells	cell viability	1.56
CO[C@@H]1C(N(C)C(=O)c2ccccc2)C[C@H]2O[C@]1(C)n1c3ccccc3c3c4c(c5c6ccccc6n2c5c31)C(=O)NC4=O (some centres undefined)	SEM cells	cell viability	10.7
